Hello, the source for this data is the nanobody polyreactivity screen of Harvey et al. (2022), in case you need it.

- methodSummary: yeast display, Sf9 membrane polyspecificity reagent, FACS + sequencing; frameworks hold sequencing errors
readoutLabel: polyreactivity (PSR sort gate)

QVQLVESGGGLVQAGGSLRCSCAASGFTFYSYAMGWYRQAPGKERELVAAITESGGSTYYADSVKGRFTISRDNAKNTVYLQMNSLKPEDTAVYYCAAQFAQRPQYYYFVWYDYWGQGTQVTVSS	low polyreactivity
QVQLVESGGGLVQAGGSLRLSCAASGRTFGGNAMGWYRQAPGKERELVAAITGRGGSTYYADSVKGRFTISRDNAKNTVYLQMNSLKPEDTAVYYCAKQFKRGYGYDYWGQGTQVTVSS	low polyreactivity
QVQLVESGGGLVQAGGSLRLSCAASGIIFSGYAMGWYRQAPGKERELVASIRSGSNTYYADSVKGRFTISRDNAKNTVYLQMNSLKPEDTAVYYCAARVVPATFRFIRYPHPYYYWGQGTQVTVSS	low polyreactivity
QVQLVESGGGLVQAGGSLRLSCAASGRIIKRYAMGWYRQAPGKERELVAAISASGSSTYYADSVKGRFTISRDNAKNTVYLQMNSLKPEDTAVYYCAAWAYSPSASYDYWGQGTQVTVSS	high polyreactivity
QVQLVESGGGLVQAGGSLRLSCAASGITFYRYVMGWYRQAPAKERELVAAITTGDSTSYADSVKGRFTISRDNAKNTVYLQMNSLKPEDTAVYYCAAVYYTALANYDYWGQGTQVTVSS	low polyreactivity

Q) Which polyreactivity (PSR sort gate) is reported for this sequence? QVQLVESGGGLVQAGGSLRLSCAASGSNFGRYAMGWYRQAPGKESELVAAINDDSGRTYYADTVKGRFTISRDNAKNTVYLQMNSLKPEDTAVYYCAAYRISQGYSTYNYWGQGTQVTVSS
A) high polyreactivity

Q) Which polyreactivity (PSR sort gate) is reported for this sequence? QVQLVESGGGLVQAGGSLRLSCAASGRIFQPYTMGWYRQAPGKERELVAAITRSGGSTYYADSVKGRFTISRDNAKNTVYLQMNSLKPEDTAVYYCAADSRPYGKYDYWGQGTQVTVSS
A) high polyreactivity

Q) Which polyreactivity (PSR sort gate) is reported for this sequence? QVQLVESGGGLVQAGGSLRLSCAASGIIFRDYAMGWYRQAPGKERELVAAINLDGTSTYYADSVKGRFTISRDNAKKTVYLQMNSLKPEDTAVYYCAAEYDNADYINYFLDMYYWGQGTQVTVSS
A) low polyreactivity

* * *

- methodSummary: yeast display, Sf9 membrane polyspecificity reagent, FACS + sequencing; frameworks hold sequencing errors
readoutLabel: polyreactivity (PSR sort gate)

Please review the entries below; each comes with its answer.
QVQLVESGGCLVQAGGSLRLSCSASGRTFNWKAMGWYRPAPGKERELVAVITSSGTRTYYADSVKGRFTISRDNAKNTVSLQMNSLKPEDTAVYYCANGETYTGPNSRYGQWKKVYYWGQGTQVTVSS	low polyreactivity
QVQLVESGGGLVQAGGSHRLSCAASGRIFTYNAMGWYRQAPGKERELVAVITSGGSTYYADSVKGRFTISRDNAKNTVYLQMNSLKPEDTAVYYCNAVYFRYRYNYWGQGTQVTVSS	high polyreactivity
QVQLVESGGGLVQAGGSLRLSCAASGFTFVSYAMGWYRQAPGKERELVATITSDGSTNYADSVKGRFTISRDNAKNTVYLQMNSLKPEDTAVYYCAADIHYYPGYLAYDYWGQGTQVTVSS	low polyreactivity
QVQLVESGGGLVQAGGSLRLSCAASGSIFTNAMGWYRQAPGKERELVAAISSTGGSTYYADSVKGRFTISRDNAKNTVYLQMYSLKPEDTAVYYCAADHYGGRDYWGQGTQLTVSS	low polyreactivity
QVQLVDSGVGLVQAGGSLRLSCAASGRTFTTNTKGWYRDATWKERELVAAITWSGASTYYADSVKGRFTISRDNAKNTVYLQMNSLKPEDTAVYYCAAERTPSYRAYDYWGQGTQVTVSS	low polyreactivity
QVQLVESGGGVVQAGGSLRLSCAASRRTFTYYDMGWYRQAPGKERELVAGITARGGSTYADSVKGRFTISRDNAKNTVYLQMNSLKPEDTAVYYCAADLYTSLDSTYVYWGQGTQVTLSS	low polyreactivity
QVQLVESGGGLVQAGGSLRVSCAASGGTFCNYAMGWNRQAPGKERELVAAITSGGGSTYYADSVKGRFTISRDIAKNTVYLQMNSLKPEDTAVYYCAARRSSYGYWGQGTQVTVSS	high polyreactivity
QVQLVESGGGLVQAGGSLRLSCAASGSIFAKYGMGWYRQAPGKEREFVAAISKSGGITYYADSVKGRFTISRDNAKNTVYLQMNSLKPEDTAVYYCADSYVSYRKRDDYWGQGTQVTVSS	high polyreactivity

Q) Which polyreactivity (PSR sort gate) is reported for this sequence? QVQLVESGGGLVQAGGSLRLSCAASGSTLWRSAMGWYRQAPGKERELVAGISRGGGSTYYADSVKGRFTISRDNAKNTVYLQMHSLKPEDTAVYYCATPVYQVRGAFDYWGQGTQVTVSS
A) low polyreactivity

Q) Which polyreactivity (PSR sort gate) is reported for this sequence? QVQLVESGGGIVQAGGSLRLSCAASGSTFNWNAMGWYRQAPGKEREFVAAISKSGGTTYYADSVKGRFTISRDNAKNTVYLQMNSLKPEDTAVYYCAAVRRYHSYPDGGYWGQGTQVTVSS
A) high polyreactivity
